System: HL-60
assay_method_text: Cytotoxicity against human HL60 after 20 hrs by WST1 assay
Format: functional, cell-based
test_settings: HL-60, 20 h
pIC50: −log10 of the molar value.
result_type: pIC50

>>> observed_value("CC#CC#C/C=C1/C=CC2(CCC(OC)O2)O1 (racemic)")
4.78
>>> observed_value("CC#CC#C/C=C1/O[C@@]2(OC=C[C@H]2OC(C)=O)[C@@H](O)[C@@H]1Cl")
4.72
>>> observed_value("CC#CC#C/C=C1\\C=C[C@]2(OC=CC2OC(C)=O)O1 (stereo partly drawn)")
5.40

---

IC50 for assorted compounds
System: HL-60
assay_method_text: Cytotoxicity against human HL60 after 20 hrs by WST1 assay
Type: functional, cell-based
test_settings: HL-60, 20 h
result_type: IC50 (µM)

>>> observed_value("CC#CC#C/C=C1/C=C[C@]2(OC=CC2OC(C)=O)O1 (stereo partly specified)")
4.2
>>> observed_value("CC#CC#C/C=C1\\C=C[C@@]2(CCCO2)O1")
16.2
>>> observed_value("C=C1C(=O)O[C@@H]2C[C@@H](C)[C@@H]3C=CC(=O)[C@@]3(C)[C@@H](O)[C@H]12")
0.7
>>> observed_value("CC#CC#C/C=C1/C=C[C@@]2(CC=CO2)O1")
5.6
>>> observed_value("CC#CC#C/C=C1\\C=C[C@@]2(CC=CO2)O1")
6.1
>>> observed_value("CC#CC#C/C=C1\\C=CC2(CCC(OC)O2)O1 (racemic)")
18.3
